assay: Drug metabolism in rat liver microsomes assessed as disappearance of parent compound at 5 uM after 30 mins in presence of NADPH by UPLC-MS/MS analysis; assay type: ADME, microsome; conditions: read-out: Drug metabolism
Field: metabolised at 0.5 h, 5 µM. Provide a value for each of the molecules that follow.
Reply numerically in %, unit not repeated.

Name the reported metabolised at 0.5 h, 5 µM value associated with the molecule Cc1ccn2nc([C@H](C)Nc3ncnc4[nH]cc(-c5cc(NS(C)(=O)=O)cc6[nH]ccc56)c34)n(-c3ccccc3)c(=O)c12
32

Please look up its metabolised at 0.5 h, 5 µM: Cc1ccn2nc([C@H](C)Nc3ncnc4[nH]cc(Cc5cccc(O)c5)c34)n(-c3ccccc3)c(=O)c12
72

Report metabolised at 0.5 h, 5 µM for Cc1ccn2nc([C@H](C)Nc3ncnc(N)c3-c3ccc(O)cc3)n(-c3ccccc3)c(=O)c12 please.
22

Which metabolised at 0.5 h, 5 µM is reported for this molecule? Cc1ccn2nc([C@H](C)Nc3ncnc4[nH]cc(-c5cccc6[nH]ccc56)c34)n(-c3ccccc3)c(=O)c12
74

###

Hi there, I'd appreciate the recorded pIC50 for every entry that follows.
biological target: Phosphatidylinositol 4,5-bisphosphate 3-kinase catalytic subunit gamma isoform (Homo sapiens); test: Inhibition of recombinant human N-terminal His6-tagged full length p110gamma using PIP2 as substrate preincubated for 30 mins followed by substrate addition by HTRF assay
Sequence (P48736 whole entry, canonical isoform): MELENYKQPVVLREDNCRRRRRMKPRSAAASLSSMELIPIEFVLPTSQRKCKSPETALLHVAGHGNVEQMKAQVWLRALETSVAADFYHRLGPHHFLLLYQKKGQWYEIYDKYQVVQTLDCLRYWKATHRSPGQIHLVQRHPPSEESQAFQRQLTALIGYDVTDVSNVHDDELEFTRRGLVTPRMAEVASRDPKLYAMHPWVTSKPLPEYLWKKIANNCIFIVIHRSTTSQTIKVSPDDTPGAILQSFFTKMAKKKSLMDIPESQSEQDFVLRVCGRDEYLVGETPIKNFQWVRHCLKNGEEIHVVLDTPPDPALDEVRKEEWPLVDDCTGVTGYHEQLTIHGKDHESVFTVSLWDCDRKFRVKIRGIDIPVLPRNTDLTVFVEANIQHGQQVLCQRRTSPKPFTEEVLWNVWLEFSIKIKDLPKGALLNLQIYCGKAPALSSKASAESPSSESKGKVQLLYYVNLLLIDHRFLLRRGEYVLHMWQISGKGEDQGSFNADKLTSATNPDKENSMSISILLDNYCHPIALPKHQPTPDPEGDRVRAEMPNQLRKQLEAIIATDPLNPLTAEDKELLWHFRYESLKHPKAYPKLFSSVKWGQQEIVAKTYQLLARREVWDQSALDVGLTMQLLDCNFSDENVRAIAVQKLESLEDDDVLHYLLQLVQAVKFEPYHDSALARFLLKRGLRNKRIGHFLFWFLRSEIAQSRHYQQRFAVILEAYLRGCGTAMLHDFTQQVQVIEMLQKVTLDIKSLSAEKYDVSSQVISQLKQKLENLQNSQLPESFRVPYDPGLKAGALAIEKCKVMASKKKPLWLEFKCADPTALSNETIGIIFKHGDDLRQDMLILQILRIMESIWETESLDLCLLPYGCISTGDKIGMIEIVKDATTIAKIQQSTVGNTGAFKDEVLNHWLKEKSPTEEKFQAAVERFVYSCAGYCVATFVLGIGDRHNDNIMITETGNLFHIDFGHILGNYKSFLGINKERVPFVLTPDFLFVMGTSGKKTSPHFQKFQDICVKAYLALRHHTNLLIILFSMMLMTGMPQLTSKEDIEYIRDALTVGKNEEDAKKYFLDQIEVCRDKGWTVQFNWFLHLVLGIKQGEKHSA
// pIC50: -log10(molar conc.)

Which pIC50 is reported for this compound? Cc1ccn2nc([C@H](C)Nc3ncnc4[nH]cc(-c5cc(NS(C)(=O)=O)cc6[nH]ccc56)c34)n(-c3ccccc3)c(=O)c12
7.44

What pIC50 value was documented for this compound, Cc1ccn2nc([C@H](C)Nc3ncnc4[nH]cc(-c5cnn(C)c5)c34)n(-c3ccccc3)c(=O)c12 ?
8.44

Give the measured pIC50 of Cc1ccn2nc([C@H](C)Nc3ncnc4[nH]cc(-c5cc(O)cc(NS(C)(=O)=O)c5)c34)n(-c3ccccc3)c(=O)c12 .
9.15

Which pIC50 value is on record for Cc1ccn2nc([C@H](C)Nc3ncnc(N)c3-c3cccc(NS(C)(=O)=O)c3)n(-c3ccccc3)c(=O)c12 ?
8.77

###

Please respond with reported metabolised at 2 h, 5 µM for every item in the list.
assay: Drug metabolism in rat liver microsomes assessed as disappearance of parent compound at 5 uM preincubated for 3 mins followed UDPG addition and measured after 120 mins by UPLC-MS/MS analysis; format: ADME, microsome; details: read-out: Drug metabolism
Write it as a number; the unit % goes unstated.

Which metabolised at 2 h, 5 µM value is on record for Cc1ccn2nc([C@H](C)Nc3ncnc4[nH]cc(-c5cc(NS(C)(=O)=O)cc6[nH]ccc56)c34)n(-c3ccccc3)c(=O)c12 ?
10

For the molecule shown here, Cc1ccn2nc([C@H](C)Nc3ncnc(N)c3-c3cc(O)cc(F)c3)n(-c3ccccc3)c(=O)c12 , give the reported metabolised at 2 h, 5 µM.
26

For the molecule COc1cccc(-c2c[nH]c3ncnc(N[C@@H](C)c4nn5ccc(C)c5c(=O)n4-c4ccccc4)c23)c1O , what metabolised at 2 h, 5 µM is on record?
44

Suppose we examine the molecule Cc1ccn2nc([C@H](C)Nc3ncnc4[nH]cc(-c5cnn(C)c5)c34)n(-c3ccccc3)c(=O)c12 ; what metabolised at 2 h, 5 µM value has been reported?
6
